Molecular target: Vasopressin V2 (Rattus norvegicus, UniProt Q00788)
Sequence (Q00788 whole entry): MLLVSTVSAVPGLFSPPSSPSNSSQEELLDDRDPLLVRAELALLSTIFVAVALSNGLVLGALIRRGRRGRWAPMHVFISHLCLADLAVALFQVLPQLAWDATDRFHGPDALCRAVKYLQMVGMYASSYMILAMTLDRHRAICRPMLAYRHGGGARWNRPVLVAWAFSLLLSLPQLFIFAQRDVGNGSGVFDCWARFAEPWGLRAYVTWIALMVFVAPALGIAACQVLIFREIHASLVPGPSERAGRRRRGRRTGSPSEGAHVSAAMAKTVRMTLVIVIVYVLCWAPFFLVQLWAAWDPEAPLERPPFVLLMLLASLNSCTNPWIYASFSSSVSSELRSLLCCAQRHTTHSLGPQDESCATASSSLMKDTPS
Assay: Vasopressin V2 agonist effects in normal conscious water-loaded rats
Type: in vivo
Design: from tissue; host or cells: whole living Sprague-Dawley rat; the receptor is the animal's own (renal, by own knowledge)
Conditions: Sprague-Dawley (CD) rats, 10 mg/kg oral, change in osmolality as percent of control
readout kind: Osmolality (% Increase) (%)

Reference set, count: 5
>>> print(df.to_string())
                                   compound             readout_kind  experimental_result
0  CCC(=O)n1ccc(-c2ccc(C(=O)N3Cc4cccn4Cc4ccccc43)cc2)n1 [Example 31]  Osmolality (% Increase)                  298
1  O=C(c1ccc(-n2cccn2)cc1Cl)N1Cc2cccn2Cc2ccccc21 [Example 16]  Osmolality (% Increase)                  400
2  O=C(c1ccc(-c2ccn(C(=O)C3CC3)n2)cc1)N1Cc2cccn2Cc2ccccc21 [Example 32]  Osmolality (% Increase)                  373
3  Cc1cc(C)n(-c2ccc(C(=O)N3Cc4cccn4Cc4ccccc43)cc2)n1 [Example 61]  Osmolality (% Increase)                  245
4  Cc1cn(-c2ccc(C(=O)N3Cc4cccn4Cc4ccccc43)c(C(F)(F)F)c2)cn1 [Example 6]  Osmolality (% Increase)                  270

P. Cc1ccn(-c2ccc(C(=O)N3Cc4cccn4Cc4ccccc43)cc2)n1 [Example 59]
Q. Cc1ccn(-c2ccc(C(=O)N3Cc4ccc(CN(C)C)n4Cc4ccccc43)c(Cl)c2)n1 [Example 87]
R. O=C(c1ccc(-n2cccc2)cc1Cl)N1Cc2cccn2Cc2ccccc21 [Example 15]
Inquiry: Ascending by Osmolality (% Increase), please. List each label, following the requested order.
Reply text: R, Q, P
(R: 38%, Q: 214%, P: 607%)

A. Cc1ccn(-c2ccc(C(=O)N3Cc4cccn4Cc4ccccc43)c(Cl)n2)n1 [Example 100]
B. Cc1n[nH]c(-c2ccc(C(=O)N3Cc4cccn4Cc4ccccc43)c(Cl)c2)n1 [Example 81]
Inquiry: For the two items A and B , which reports the higher Osmolality (% Increase) value? // respond with label for picked entry
Reply text: B
(B: 490%, A: 248%)
